Settings: fish
So basically: is log10 BCF under 2? Then 1. Not under? Then 0.

- Compound: "CC1=NN(c2cc(Cl)c(S(=O)(=O)O)cc2Cl)C(=O)C1"
  Label class: 1
- Compound: "O=[N+]([O-])c1cccc(O)c1"
  Label class: 1
- Compound: "Cc1ccccc1C"
  Label class: 1
- Compound: "ClCCOC(c1ccccc1)c1ccccc1"
  Label class: 0
- Compound: "Clc1cc(Cl)c(-c2ccccc2)cc1Cl"
  Label class: 0
- Compound: "Cc1ccc(C)c(C(C)c2ccccc2)c1 (stereo not given)"
  Label class: 0
- Compound: "Nc1cccc(O)c1"
  Label class: 1
- Compound: "c1ccc2c(c1)sc1ccccc12"
  Label class: 0
- Compound: "OCC(CO)(CBr)CBr"
  Label class: 1
- Compound: "c1ccc(Nc2ccccc2)cc1"
  Label class: 0

Consider the record given below.
Ask: Is the reported log10 BCF for O=C(O)c1cc2ccccc2cc1O strictly below 2?
Result: 1

meta.source: the OPERA property sets (Mansouri et al. 2018)
